Please go through the items and note down their inhibition.
- target.or.system: Hexose transporter 1 (Plasmodium falciparum) (UniProt O97467)
- method.summary: ST_JUDE_LEISH: Cytotoxicity at 2uM final concentration against transgenic Leishmania Mexicana promastigotes LmPfHT that are glucose transport deficient and complemented with the Plasmodium falciparum hexose transporter. Activity is measured by DNA content using SYBR green in vitro
- Type: functional
One number for each entry, in %.

Worked cases, inhibition given:
- compound: "COc1ccc(-c2cc3ncn(CC(=O)N4CCN(c5cccc(OC)c5)CC4)c(=O)c3s2)cc1"
  unit.spec: "%"
  result: 3.48
- compound: "O=C(Nc1cccc(C(F)(F)F)c1)Nc1ccc(F)c([N+](=O)[O-])c1"
  unit.spec: "%"
  result: 3.09
- compound: "COc1cc(/C=C/C(=O)NC2CCC(N3CCC(c4ccccc4C)CC3)CC2)cc(OC)c1 (centres undefined)"
  unit.spec: "%"
  result: -0.16

Turning now to a further record.
O=C(Cn1c(CCc2cccc(F)c2F)nc(=O)c2ccccc21)N(Cc1ccc(-c2ccc(C(F)(F)F)cc2)cc1)C1CCN(C2CCSCC2)CC1 yielded inhibition of -2.32

* * *

Please go through the items and note down their inhibition.
- target.or.system: Solute carrier family 2, facilitated glucose transporter member 1 (Homo sapiens)
- method.summary: ST_JUDE_LEISH: Cytotoxicity at 2uM final concentration against transgenic Leishmania Mexicana promastigotes LmGLUT1 that are glucose transport deficient and complemented with the human glucose transporter GLUT1. Activity is measured by DNA content using SYBR green in vitro
- Assay type: functional
Give bare numbers, in %.

Worked cases, inhibition given:
- compound: "O=[N+]([O-])c1ccccc1/C=N/Nc1ccnc2cc(Cl)ccc12"
  endpoint.label: "inhibition"
  unit.spec: "%"
  result: 4.36
- compound: "CN1CCC(NCc2ccc(-c3cccc(S(=O)(=O)NCC4CCCO4)c3)cc2)CC1 (stereo not given)"
  endpoint.label: "inhibition"
  unit.spec: "%"
  result: 0.62
- compound: "Cc1c(Cl)cccc1S(=O)(=O)Nc1ccc(CCN2CCC(N)CC2)cc1"
  endpoint.label: "inhibition"
  unit.spec: "%"
  result: -2.63
- compound: "COc1c(C2CCN(CCN3CCC(CNC(=O)c4ccc(-c5ccc(C#N)cc5)cc4)CC3)CC2)ccc2c1CCCC2"
  endpoint.label: "inhibition"
  unit.spec: "%"
  result: 3.97
- compound: "Cc1nc(C)c(-c2ccc(Oc3ccc(OC(F)(F)F)cc3)cc2)c(OC(=O)c2ccc(CN(C)C)cc2)c1Cl"
  endpoint.label: "inhibition"
  unit.spec: "%"
  result: 10.9
- compound: "CCCCCc1ccc(NC(=O)Nc2ccc(Cn3ncc(N4CCCNCC4)c(Cl)c3=O)cc2)cc1"
  endpoint.label: "inhibition"
  unit.spec: "%"
  result: -1.1
- compound: "Clc1ccc2c(NCc3ccccc3)ccnc2c1"
  endpoint.label: "inhibition"
  unit.spec: "%"
  result: 1.8
- compound: "CN1CCN(c2cc(-c3ccncc3)nc(-c3cccnc3)n2)CC1"
  endpoint.label: "inhibition"
  unit.spec: "%"
  result: 5.17

Each compound below has a reported value. Please supply its inhibition.
1. O=C(c1ccc(-c2ccc(-c3nc4cc(C(F)(F)F)ccc4[nH]3)s2)cc1)N1CCN(CCc2ccccc2)CC1
2. CCCCCCCc1ccc(-c2c(C)[nH]c(C)c(Cl)c2=O)cn1
3. CCn1cc(-c2nc(-c3cc(OC)cc(OC)c3)no2)c(=O)c2ccccc21

Output line:
[5.29, 0.84, 12.3]

Each compound below has a reported value. Please supply its inhibition.
1. O=S1(=O)NC2(CCN(CCc3ccc(Cl)cc3)CC2)Nc2cc(F)cc(F)c21
2. COc1ccc(CCNCCCCNCCc2ccc(OC)c3ccccc23)c2ccccc12
3. CC(C)COc1ccc(Cl)cc1Cc1ccc(-c2nc3ccc(Br)cc3[nH]2)o1
4. Cc1ccc2nc(C)n(C3CCN(C(=O)Cc4ccccc4C)CC3)c2c1
5. CCN(CC)CCCC(C)Nc1c(-c2ccc(C)cc2)cnc2ccccc12 (stereo not given)
6. COc1ccc(-c2cccc(NC(=O)c3ccccc3)c2)cc1CN1CCCN(C)CC1
7. CNCCNCc1cccc(-c2ccc(-c3nc4ccccc4[nH]3)s2)c1
8. Cc1cc(NC(c2ccc(Cl)cc2)c2ccc3cccnc3c2O)no1 (stereo not given)

Output line:
7.66
64.4
5.75
5.4
9.89
-2.02
1.51
16.6

N#Cc1cccc(C(=O)NC2CCN(CCCCCNC(=O)/C=C/c3ccc(Cl)c(Cl)c3)CC2)c1 yielded inhibition of 5.7

* * *

Please go through the items and note down their inhibition.
- target.or.system: Glucose transporter (Leishmania mexicana) (UniProt O61059)
- method.summary: ST_JUDE_LEISH: Cytotoxicity at 2uM final concentration against transgenic Leishmania Mexicana promastigotes LmGT2 that are glucose transport deficient and complemented with the L. Mexicana glucose transporter 2. Activity is measured by DNA content using SYBR green in vitro
- Format: functional
Answers are plain numbers, in %.

Worked cases, inhibition given:
- compound: "COc1ccc(OCCCCON2C(=N)N=C(N)NC2(C)C)cc1"
  inhibition, %: 2.18
- compound: "Cc1nc2ccc3nc(NC(=O)c4ccno4)sc3c2s1"
  inhibition, %: -1.31

Each compound below has a reported value. Please supply its inhibition.
1. CCCOc1ccc(N2C(N)=NC(N)=NC2(C)C)cc1
2. Cc1cccc2nc(-c3cccc(-c4ccc(NC(=O)Cc5ccon5)cc4)c3)[nH]c12

Output line:
1: 2.09; 2: 10.8

* * *

- target.or.system: Solute carrier family 2, facilitated glucose transporter member 1 (Homo sapiens) (UniProt P11166)
- Sequence (P11166 whole entry): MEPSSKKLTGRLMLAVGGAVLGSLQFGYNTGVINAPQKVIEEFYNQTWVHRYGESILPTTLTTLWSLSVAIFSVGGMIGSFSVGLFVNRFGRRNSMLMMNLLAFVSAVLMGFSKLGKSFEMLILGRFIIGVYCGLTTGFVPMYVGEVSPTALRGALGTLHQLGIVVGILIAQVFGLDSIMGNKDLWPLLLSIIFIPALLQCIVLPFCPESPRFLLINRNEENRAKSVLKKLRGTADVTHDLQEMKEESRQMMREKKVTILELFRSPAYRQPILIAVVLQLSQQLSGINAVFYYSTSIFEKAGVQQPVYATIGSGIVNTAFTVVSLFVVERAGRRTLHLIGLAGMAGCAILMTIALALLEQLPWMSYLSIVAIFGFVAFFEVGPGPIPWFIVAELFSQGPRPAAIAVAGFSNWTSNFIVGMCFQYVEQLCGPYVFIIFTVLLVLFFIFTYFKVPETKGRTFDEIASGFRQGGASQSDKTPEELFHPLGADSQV
- method.summary: ST_JUDE_LEISH: Cytotoxicity at 2uM final concentration against transgenic Leishmania Mexicana promastigotes LmGLUT1 that are glucose transport deficient and complemented with the human glucose transporter GLUT1. Activity is measured by DNA content using SYBR green in vitro
- Assay type: functional
Is inhibition at least 10%? Then T. If not, F.

- compound: "Cc1cccc2nc(-c3ccc(-c4ccc(CN5CCN(c6ccncc6)CC5)cc4)cc3)[nH]c12"
  assigned.label: "T"
- compound: "CC(C)CNc1c2c(nc3cnn(-c4c5c(nc6cn[nH]c46)CCCC5)c13)CCCC2"
  assigned.label: "F"
- compound: "CC(=O)Nc1ccc(C(=O)N2CCN(c3ccnc4cc(Cl)ccc34)CC2)cc1"
  assigned.label: "F"
- compound: "COc1ccc(CNCCc2cccs2)cc1-c1ccc(OC)c(S(=O)(=O)NCCN2CCCC2)c1"
  assigned.label: "F"
- compound: "Oc1ccc2[nH]cc(C3CCN(CCCCCCCCCN4CCC(c5c[nH]c6ccc(O)cc56)CC4)CC3)c2c1"
  assigned.label: "F"

Input line: Quick check: does COc1cc(SC)ccc1C(=O)N1CC(C)CC(C)C1 (centres undefined) have inhibition greater than or equal to 10%?
Output line: T

Input line: Quick check: does CC(CNC(=O)C(c1cc2ccccc2o1)N1CCN(C(c2ccccc2)c2ccccc2)CC1)c1ccccc1 (centres undefined) have inhibition greater than or equal to 10%?
Output line: F

Input line: Quick check: does COc1ccc2ncc(Cl)c(NCC3(O)CCC(NCc4ccc5c(n4)NC(=O)CS5)CC3)c2n1 (centres undefined) have inhibition greater than or equal to 10%?
Output line: F

* * *

Please go through the items and note down their inhibition.
- target.or.system: Hexose transporter 1 (Plasmodium falciparum)
- method.summary: ST_JUDE_LEISH: Cytotoxicity at 2uM final concentration against transgenic Leishmania Mexicana promastigotes LmPfHT that are glucose transport deficient and complemented with the Plasmodium falciparum hexose transporter. Activity is measured by DNA content using SYBR green in vitro
- Type: functional
One number for each entry, in %.

Worked cases, inhibition given:
- compound: "O=C(Nc1ccccc1Cl)c1cc2ccccc2cc1O"
  target.or.system: "Hexose transporter 1 (Plasmodium falciparum)"
  inhibition (%): -1.17
- compound: "COc1cc(-c2cc3cc(Cl)c(Cl)cc3[nH]2)ccc1C(=O)NCCC1CCCN1C (centres undefined)"
  target.or.system: "Hexose transporter 1 (Plasmodium falciparum)"
  inhibition (%): -0.94

Each compound below has a reported value. Please supply its inhibition.
1. O=C(Nc1ccc(OC2CCN(Cc3ccco3)CC2)c(Cl)c1)c1ccc2ncccc2c1
2. Cc1cc(CNCCCCCCNCc2ccc(-c3ccccc3)cc2)ccc1O
3. O=C(NC1CCN(c2ccnc(Nc3ccc(F)cc3)n2)C1)c1cc2ccccc2s1 (centres undefined)
4. O=C(NCC1CCN(CCN2CCC(c3cn(CCO)c4ccccc34)CC2)CC1)c1ccc(-c2ccc(C(F)(F)F)cc2)cc1

Output line:
2.97
7.79
1.57
5.41

* * *

Please go through the items and note down their inhibition.
- target.or.system: Glucose transporter (Leishmania mexicana) (UniProt O61059)
- method.summary: ST_JUDE_LEISH: Cytotoxicity at 2uM final concentration against transgenic Leishmania Mexicana promastigotes LmGT2 that are glucose transport deficient and complemented with the L. Mexicana glucose transporter 2. Activity is measured by DNA content using SYBR green in vitro
- Format: functional
Numbers only, in %.

Worked cases, inhibition given:
- molecule: "Cc1[nH]c(C)c(-c2ccc(OCc3ccc(F)cc3)cc2)c(=O)c1Br"
  target.or.system: "Glucose transporter (Leishmania mexicana) (UniProt O61059)"
  inhibition (%): -1.56
- molecule: "CC[C@H](C)CNC(=O)c1ccnc(-c2ccc(CN3CCC(N4CCCC4)CC3)cc2)c1"
  target.or.system: "Glucose transporter (Leishmania mexicana) (UniProt O61059)"
  inhibition (%): 0.35
- molecule: "O=C(NCC(NCCCNc1cc(=O)c2ccccc2[nH]1)c1cc(Br)cc(Br)c1)C1=CCCC1 (centres undefined)"
  target.or.system: "Glucose transporter (Leishmania mexicana) (UniProt O61059)"
  inhibition (%): 5.79
- molecule: "CC(C)C[C@@H](/C=N/NC(N)=O)NC(=O)[C@H](CC(C)C)NC(=O)[C@H](CC(C)C)NC(=O)OCc1ccccc1"
  target.or.system: "Glucose transporter (Leishmania mexicana) (UniProt O61059)"
  inhibition (%): 4.41
- molecule: "C=C[C@H]1CN(CCCCCCC)CC[C@H]1CC(O)Cc1ccnc2cc(O)c(OC)cc12 (some centres undefined)"
  target.or.system: "Glucose transporter (Leishmania mexicana) (UniProt O61059)"
  inhibition (%): 0.32

Each molecule below has a reported value. Please supply its inhibition.
1. CCn1cnc2c(N3CCCCS3(=O)=O)cc(C(=O)N[C@@H](Cc3ccccc3)[C@H](O)CNC3CCOCC3)cc21
2. CCNc1cc(C(=O)N[C@@H](Cc2ccccc2)[C@H](O)CNC2(CC)CCCCC2)cc(N2CCCCS2(=O)=O)c1
3. O=C(C=Cc1cn(-c2ccccc2)nc1-c1cccs1)N1CCN(c2ccncc2)CC1
4. CN(C)c1ccc(C=Cc2ccc3ccccc3n2)c(Cl)c1

Output line:
[3.34, -2.89, -3.76, 85.2]
